B1: ZNF8 (parent)
chain: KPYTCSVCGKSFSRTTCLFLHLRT

Variants of: B1
protocol.notes: protein stability index of a GFP-peptide fusion (GPS, HEK-293T) (PSI 1-6); higher = more stable;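 note: lentivirally expressed fusions sorted by FACS into six bins by GFP to DsRed ratio, PSI derived from sequencing read proportions per bin multiplied by bin number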
conditions: c terminus: a fixed tail appended
Catalogue of variants with associated protein stability index
measured.endpoint: protein stability index

seq	observed.value
KPYTCSVCGKWFSRTTCLFLHLRT [S11W]	1.71
KPYTFSVCGKSFSRTTCLFLHLRT [C5F]	2.46
KPYTCAVCGKSFSRTTCLFLHLRT [S6A]	2.4
KNYTCSVCGKSFSRTTCLFLHLRT [P2N]	2.14
KPYTCSVCGKSFSRTTCLFLHLKT [R23K]	2.06
KPYTCSVCGKSFSRTTCLLLHLRT [F19L]	1.73
KPYTCSVCGKSFARTTCLFLHLRT [S13A]	2.43
KPYTCSVFGKSFSRTTCLFLHLRT [C8F]	4.22
KPYTCSVCGKSFSRTTCLFLHTRT [L22T]	2.1
KPYTCSVCGKQFSRTTCLFLHLRT [S11Q]	2.21
KPYTCSVCGKSFSRTTCLFLHLRV [T24V]	2.2
KPYTCSVCGKSFSRTTCMFLHLRT [L18M]	2.33
KPYTCSVCGKSFSRTTCLFLHLRF [T24F]	2.02
KPYTCSVCGQSFSRTTCLFLHLRT [K10Q]	2.18
KPYTCSVMGKSFSRTTCLFLHLRT [C8M]	2.19
KPYTCSVCGKSFSRTTCLFLFLRT [H21F]	1.65
KPYTCSVCGKSFSRTNCLFLHLRT [T16N]	2.73
KPYTCSVCGKSFSWTTCLFLHLRT [R14W]	1.66
KPYTCSVCGKSFSRTTCLFQHLRT [L20Q]	2.96
KPATCSVCGKSFSRTTCLFLHLRT [Y3A]	1.63
KPYTCSVCGHSFSRTTCLFLHLRT [K10H]	1.86
KPYTCSVCGKSFSRTICLFLHLRT [T16I]	2.44

Reference for the values: the supplement of paper PMC10567573
